Target: Alpha-2A adrenergic receptor (Homo sapiens); further: assay procedure not described here
Sequence (P08913 whole entry): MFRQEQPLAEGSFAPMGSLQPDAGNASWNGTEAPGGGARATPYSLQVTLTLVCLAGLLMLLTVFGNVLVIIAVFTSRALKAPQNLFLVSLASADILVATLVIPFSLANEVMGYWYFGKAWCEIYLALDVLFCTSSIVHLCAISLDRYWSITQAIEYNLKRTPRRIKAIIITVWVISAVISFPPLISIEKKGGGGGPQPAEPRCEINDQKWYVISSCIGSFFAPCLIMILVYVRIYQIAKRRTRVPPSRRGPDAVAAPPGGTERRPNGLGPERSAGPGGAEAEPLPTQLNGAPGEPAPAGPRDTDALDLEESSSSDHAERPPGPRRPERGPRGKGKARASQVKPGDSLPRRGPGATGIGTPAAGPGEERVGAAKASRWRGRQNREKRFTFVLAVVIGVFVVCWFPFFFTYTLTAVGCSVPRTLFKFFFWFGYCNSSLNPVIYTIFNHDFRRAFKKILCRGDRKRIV
Assay type: functional, cell-based

# Compound, AC50
rows = [
    ("CO/N=C(\\C(=O)N[C@@H]1C(=O)N2C(C(=O)O)=C(CSc3nc(=O)c(=O)[nH]n3C)CS[C@H]12)c1csc(N)n1", "> 30 µM"),
    ("COC(=O)C1=C(C)NC(C)=C(C(=O)OCCN2CCN(C(c3ccccc3)c3ccccc3)CC2)C1c1cccc([N+](=O)[O-])c1 (configuration not stated)", "> 30 µM"),
    ("CN(C)Cc1nnc2n1-c1ccc(Cl)cc1C(c1ccccc1)=NC2", "> 10 µM"),
    ("CCN1CCCC1CNC(=O)c1cc(S(=O)(=O)CC)ccc1OC (configuration not stated) [SULTOPRIDE]", "> 30 µM"),
    ("CCCNC(=O)NS(=O)(=O)c1ccc(Cl)cc1 [CHLORPROPAMIDE]", "> 10 µM"),
    ("CC(=O)Nc1ccc(CC(=O)O)cc1", "> 30 µM"),
    ("NNC(=O)c1ccncc1", "> 30 µM"),
]
